What follows is a collection of AC50 values obtained with Adenosine receptor A3 (Homo sapiens).
Sequence (P0DMS8 whole entry): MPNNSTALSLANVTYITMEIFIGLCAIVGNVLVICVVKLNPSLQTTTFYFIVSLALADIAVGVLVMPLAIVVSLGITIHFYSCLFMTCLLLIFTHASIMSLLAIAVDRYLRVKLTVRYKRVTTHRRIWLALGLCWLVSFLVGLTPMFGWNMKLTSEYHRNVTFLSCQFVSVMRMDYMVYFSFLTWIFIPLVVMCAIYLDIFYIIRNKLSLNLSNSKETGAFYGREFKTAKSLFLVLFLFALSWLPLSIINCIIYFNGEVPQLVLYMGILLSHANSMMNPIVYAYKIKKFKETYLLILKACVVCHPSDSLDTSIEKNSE

Compound	Rel	AC50 (µM)
CCO[C@@H](Cc1ccc(OCCn2c(C)ccc2-c2ccc(SC)cc2)cc1)C(=O)O [SAROGLITAZAR]	=	14.9
O=C(NC1CCN(CCCCC2(C(=O)NCC(F)(F)F)c3ccccc3-c3ccccc32)CC1)c1ccccc1-c1ccc(C(F)(F)F)cc1 [LOMITAPIDE]	=	4.4
C[C@@H]1C[C@H]2[C@@H]3CCC4=CC(=O)C=C[C@]4(C)[C@@]3(F)[C@@H](O)C[C@]2(C)[C@H]1C(=O)CO [DESOXIMETASONE]	>	30
CC(C(=O)O)c1ccc(N2CC=CC2)c(Cl)c1 (centres undefined) [PIRPROFEN]	>	30
